molecular target: UCHL1 (Homo sapiens, UniProt P09936); experiment: Ub-Rhodamine (Ubiquitin rhodamine cleavage) assay; type: biochemical; conditions: compound 1102.29 nM; 1 h preincubation; read-out: UCHL1 activity, data point mean
Sequence (P09936 whole entry): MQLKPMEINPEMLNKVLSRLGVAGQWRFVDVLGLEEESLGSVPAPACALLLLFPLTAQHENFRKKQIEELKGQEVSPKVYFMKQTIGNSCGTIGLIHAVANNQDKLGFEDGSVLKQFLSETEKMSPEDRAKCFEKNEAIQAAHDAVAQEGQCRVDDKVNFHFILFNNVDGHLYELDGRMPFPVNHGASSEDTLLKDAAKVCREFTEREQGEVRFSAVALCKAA
readout.kind: remaining activity at 1.10229 µM (%)
Entry rule: numbers only, all in %.

Worked set:
# molecule, remaining activity at 1.10229 µM, %
measured = [
    ("C#CCCCNC(=O)c1ccc(-n2cnc(NC(=O)[C@H]3CCNC3)c2)cc1 [GK12S]", 91.5),
    ("C#CCCCNC(=O)[C@H]1CCN(C#N)C1 [GK16S]", 91.3),
]

Noted for C#CCCCNC(=O)[C@@H]1CCN(C#N)C1 [GK16R] : its remaining activity at 1.10229 µM reads 91.5

Noted for C#CCCCNC(=O)c1ccc(-n2cnc(NC(=O)[C@@H]3CCNC3)c2)cc1 [GK12R] : its remaining activity at 1.10229 µM reads 95.5
